The reported measurements were obtained from PubChem BioAssay AID624129.

Quick reference: pIC50 of the listed items.
target: C-C chemokine receptor type 6 (Homo sapiens) (UniProt P51684); test: potency against CXCR6 with APJ panel – cell-based, beta-arrestin, DiscoveRx, uHTS hits, dose response (AID 624129); settings: CXCR6 beta-arrestin (DiscoveRx) antagonist cell assay, CCR6, dose range 1, mean IC50 across replicates
Interpret pIC50 as the negative base-10 log of the concentration measured in mol/L.

Worked examples, 4 molecules total:
[ask] Request: pIC50, test system C-C chemokine receptor type 6 (Homo sapiens) (UniProt P51684), entry COc1ccc(/C=C/c2ccc3cccc(O)c3n2)c(OC)c1OC
[reply] 5.51

[ask] Requested read-out pIC50, target or system C-C chemokine receptor type 6 (Homo sapiens) (UniProt P51684), entry Cc1ccccc1Oc1cc(-n2ncc(Cl)c(Cl)c2=O)ncn1
[reply] 5.82

[ask] Record O=C1c2sc3nc4ccccc4n3c2C(=O)N1c1ccccc1Cl : what is its pIC50 with C-C chemokine receptor type 6 (Homo sapiens) (UniProt P51684)?
[reply] 4.83

[ask] Record CCCOc1cccc(-c2cc(C(=O)N/N=C/c3ccccn3)c3ccccc3n2)c1 : what is its pIC50 with C-C chemokine receptor type 6 (Homo sapiens) (UniProt P51684)?
[reply] 5.44

Continuing:
[ask] # value lookup — system C-C chemokine receptor type 6 (Homo sapiens) (UniProt P51684), readout pIC50, item N#CC(C#N)=C1C=CC=CN1/C(=C\c1ccco1)C(=O)c1ccccc1
[reply] 5.53

[ask] Missing value: pIC50, C-C chemokine receptor type 6 (Homo sapiens) (UniProt P51684), entry Oc1cccc2ccc(/C=C/c3cccs3)nc12 . Fill in?
[reply] 5.25

[ask] Param readout = pIC50; param system = C-C chemokine receptor type 6 (Homo sapiens) (UniProt P51684); param query = O=C(N/N=C(\c1ccccc1)c1cccnc1)c1cccc(F)c1 ; response: value
[reply] 5.33

[ask] Request: pIC50, test system C-C chemokine receptor type 6 (Homo sapiens) (UniProt P51684), entry On1ccccc1=S
[reply] 4.57

----------
Item-by-item account of inhibition
target: C-X-C chemokine receptor type 6 (Homo sapiens); assay: potency against CXCR6 with APJ panel – cell-based, beta-arrestin, DiscoveRx, uHTS hits, dose response (AID 624129); settings: CXCR6 beta-arrestin (DiscoveRx) antagonist cell assay, CXCR6, run 2, dose range 1, at 79 µM (top of the series)
Output spec: scalar in %, unitless text.

Sample records with inhibition:
[ask] Can you share its inhibition? I mean this compound: CCn1nccc1C(=O)Nc1nc2ccccc2n1CCN1CCCCC1
[reply] 84.7

[ask] Consider the compound shown here: CCN(CC)CCn1c(N)c(S(=O)(=O)c2ccccc2)c2nc3ccccc3nc21 What is its recorded inhibition?
[reply] 99.2

[ask] Consider the compound COc1ccc(-n2nnnc2S(=O)(=O)CC(=O)N2CCCCC2)cc1 and give its measured inhibition.
[reply] 97.5

[ask] Would you mind telling me what inhibition value was observed for O=C1C=CC(=O)N1CCCCCCCCCCN1C(=O)C=CC1=O ?
[reply] 111

[ask] Find the recorded inhibition belonging to O=C(NCc1cccnc1)/C(=C\c1ccc(-c2cccc(Cl)c2)o1)S(=O)(=O)c1ccccc1 and report it.
[reply] 88.9

***
[ask] // lookup inhibition for Nc1cccc2c1C(=O)N(C(=O)/C=C/c1cccc(F)c1)C2=O
[reply] 98.3

[ask] Consider the compound Cc1ccc(S(=O)(=O)c2ccc([N+](=O)[O-])cn2)cc1 and give its measured inhibition.
[reply] 109

[ask] Quick one: inhibition for Cc1ccc(NC(=S)NNc2ncc(C(F)(F)F)cc2Cl)cc1 ?
[reply] 105

[ask] Quick one: inhibition of N#CC(C#N)=C1C=CC=CN1/C(=C\c1ccco1)C(=O)c1ccc(-c2ccccc2)cc1 ?
[reply] 103

[ask] Given the entry CC1=C(C)CC2C(C1)C(=O)c1ccc(Br)cc1S2(=O)=O (centres undefined) , report its measured inhibition.
[reply] 50.8

----------
Quick reference: pIC50 of the listed items.
target: UniProt:O00574; test: potency against CXCR6 with APJ panel – cell-based, beta-arrestin, DiscoveRx, uHTS hits, dose response (AID 624129); details: CXCR6 beta-arrestin (DiscoveRx) antagonist cell assay, CXCR6, dose range 1, mean IC50 across replicates
Sequence (O00574 whole entry, looked up): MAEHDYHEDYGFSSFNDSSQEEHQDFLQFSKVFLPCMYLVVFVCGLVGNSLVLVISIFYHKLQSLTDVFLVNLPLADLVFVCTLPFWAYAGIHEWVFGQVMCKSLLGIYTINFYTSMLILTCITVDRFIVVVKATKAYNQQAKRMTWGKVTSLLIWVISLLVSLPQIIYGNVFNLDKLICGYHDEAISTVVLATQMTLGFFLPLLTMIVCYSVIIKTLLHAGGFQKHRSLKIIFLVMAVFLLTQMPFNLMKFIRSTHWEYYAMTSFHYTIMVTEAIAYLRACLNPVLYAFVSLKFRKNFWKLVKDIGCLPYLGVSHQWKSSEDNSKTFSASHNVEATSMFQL
pIC50: −log10 of the molar value.

Before answering, review these 2 worked examples.
[ask] Which measured pIC50 value corresponds to Cc1cc(C)c2ccc(N)nc2c1O ?
[reply] < 4.10

[ask] Item O=[N+]([O-])c1cc([N+](=O)[O-])c2cc3ccccc3nc2c1 has what recorded pIC50?
[reply] < 4.10

New cases:
[ask] Would you mind telling me what pIC50 value was observed for CC(C)(C)C(=O)NC(=S)NNC(=O)c1sc2ccccc2c1Cl ?
[reply] < 4.10

----------
biological target: Apelin receptor (Homo sapiens) (UniProt P35414); assay: potency against CXCR6 with APJ panel – cell-based, beta-arrestin, DiscoveRx, uHTS hits, dose response (AID 624129); conditions: CXCR6 beta-arrestin (DiscoveRx) antagonist cell assay, APJ, dose range 1
As shown below, each of these compounds has a reported pIC50 value.
# pIC50: negative log10 of molar concentration; output just the value

[ask] Which value of pIC50 has been reported for COc1ccc(C[C@@H]2OC3(C=CC(=O)C=C3)O[C@H]2Cc2ccc(OC)cc2)cc1 in the records?
[reply] 5.09

[ask] Given the entry O=C1c2sc3nc4ccccc4n3c2C(=O)N1c1ccccc1Cl , report its measured pIC50.
[reply] 4.63

[ask] May I ask what pIC50 has been recorded for Cc1ccc(S(=O)(=O)Nc2cccc3cccnc23)cc1 ?
[reply] 4.78

[ask] Which pIC50 value belongs to COc1ccc(OC)c2sc(N(CCCN(C)C)C(=O)CCS(=O)(=O)c3ccccc3)nc12 ?
[reply] 4.66

***
[ask] pIC50 for O=[N+]([O-])c1c(NCCCO)cc(Sc2nc3ccccc3s2)c2nonc12 ?
[reply] 5.02

[ask] // query pIC50 value for entry CCOc1ccc2nc(NC(=O)c3ccccn3)sc2c1
[reply] 4.93

----------
target: Apelin receptor (Homo sapiens) (UniProt P35414); assay: potency against CXCR6 with APJ panel – cell-based, beta-arrestin, DiscoveRx, uHTS hits, dose response (AID 624129); conditions: CXCR6 beta-arrestin (DiscoveRx) antagonist cell assay, APJ, run 3, dose range 1
pIC50: −log10 of the molar value.
Please note: criterion met applies when pIC50 is 5 or greater, and criterion not met applies otherwise.

[ask] Identify whether the reported pIC50 of the following compound is 5 or greater: O=C1CN(C(=O)CSc2nc3cc(Cl)ccc3c(=O)n2Cc2ccccc2)c2ccccc2N1
[reply] criterion not met

[ask] Could you please find out whether O=[N+]([O-])c1c(NCCCO)cc(Sc2ccc(Cl)cc2)c2nonc12 has pIC50 that meets 5 or exceeds it?
[reply] criterion not met

[ask] Reported pIC50 at or above 5? O=C(CN1CCN(S(=O)(=O)c2ccc(Br)cc2)CC1)Nc1ccc2c(c1)OCO2
[reply] criterion not met

[ask] In plain terms: is recorded pIC50 at least 5 for CN(C)c1nc(=NCc2ccco2)ss1 ?
[reply] criterion not met

[ask] Decide: is the reported value of pIC50 for Cc1cnc(C(=O)Nc2cccc3cccnc23)cn1 equal to or greater than 5?
[reply] criterion not met

[ask] Reported pIC50 at or above 5? COc1ccc(NC(=O)/C(Cl)=C(/Cl)S(=O)(=O)Cc2ccc(C)cc2)cn1
[reply] criterion met

[ask] Does the compound O=[N+]([O-])/C=C/c1c(Cl)cccc1Cl have recorded pIC50 that is 5 or more?
[reply] criterion not met

[ask] Threshold query (pIC50 >= 5) on Fc1ccc(Sc2nc(-c3ccccc3)nnc2C(F)(F)F)cc1
[reply] criterion not met

New cases:
[ask] Determine whether this compound has pIC50 no lower than 5: O=C(CSc1cccc2cccnc12)N1CCCC1
[reply] criterion met

[ask] Kindly determine if pIC50 recorded for CCC(=O)OCOc1ccc(/C=C2/CCC(CN(C)C)C2=O)cc1 (stereo not drawn) is above or exactly 5.
[reply] criterion not met

[ask] Test whether the compound CNC(=O)c1nnsc1S(=O)(=O)c1ccc(Cl)cc1 records pIC50 of 5 or higher.
[reply] criterion not met

----------
target: C-X-C chemokine receptor type 6 (Homo sapiens); experiment: potency against CXCR6 with APJ panel – cell-based, beta-arrestin, DiscoveRx, uHTS hits, dose response (AID 624129); conditions: CXCR6 beta-arrestin (DiscoveRx) antagonist cell assay, CXCR6, dose range 1, mean IC50 across replicates
Experimental Endpoint: IC50

[ask] Look up IC50 for this compound: CCN(CC)CCn1c(N)c(S(=O)(=O)c2ccccc2)c2nc3ccccc3nc21
[reply] 15.9 µM

[ask] What value of measured IC50 is listed for Cc1cc(C)cc(N2C(=O)CC(Sc3nnnn3-c3ccccc3)C2=O)c1 (stereo not drawn) ?
[reply] 14.5 µM

---
[ask] Record request: IC50 value, item O=C(CSc1cccc2cccnc12)N/N=C/c1cccnc1
[reply] 4.34 µM
